Tested on: K 562 human myeloid cell line
Test: Natural lymphocyte cytotoxicity against K 562 cells (51Cr release)
Format: cell-based
Settings: PBL, 35 femtomoles, 2.5 hours 37° C., 40:1; experiment with untreated control 72.7 ± 1.2
Where no end group is shown, it is not given here.
Assay readout: Percent Cytotoxicity (%)
Answers are plain numbers, in %.

Value lookup for Percent Cytotoxicity; key = MIPPEVKFNKPFVFLMDQNTK [F1]
78.5

Same thing, different sequence: FNKPFVFLMIDQNTK [F3, F-N-K-P-F-V-F-L-M-I-D-Q-N-T-K]
74.5

Same thing, different sequence: MIPPEVKFNKPFVF [F5, M-I-P-P-E-V-K-F-N-K-P-F-V-F]
72.7

Same thing, different sequence: FLMIDQNTK [F4, F-L-M-I-D-Q-N-T-K]
76.2

I'm hoping you can list Percent Cytotoxicity for every sequence here, please.
1. MIPPEVKFNKPFVFLMIDQNTKVPLFMGK [Synthetic SCM Factor]
2. FNKPFVFLMIDQNTKVPLFMGK [F2]

1. 3.2
2. 14.9

The reported numbers originate from patent US5443967A.
